- System: HCT-8
- assay-comment: Cytotoxicity against human HCT8 cells after 72 hrs by MTT assay
- Type: functional, cell-based
- details: HCT-8, 72 h
So I've got a bunch of compounds here, and I need their IC50 values.
Give the number; µg/mL is assumed, so skip it.

Endpoint output: IC50 of COc1ccc2c(c1)OC1c3cc(OC)c(OC)cc3OCC21 (centres undefined) . Value? 0.6

Entry COc1ccc2c(c1)O[C@H]1c3ccc(OC)cc3OC[C@@H]21 [HOMOPTEROCARPIN] please 6.4

Could you do the same for COc1ccc2c(c1)OC1c3ccc(O)c(O)c3OCC21 (centres undefined) [VESTICARPAN] , please? 12.4

Request: O=C1C[C@@H](c2ccc(O)cc2)Oc2cc(O)ccc21 [LIQUIRTIGENIN] 19.5

###

- Tested on: HL-60
- assay-comment: Cytotoxicity against human HL60 cells after 72 hrs by MTT assay
- Assay type: functional, cell-based
- details: HL-60, 72 h
measured-metric: IC50 (µg/mL)
The reply should be a number in µg/mL, with the unit left off.

Data request, read-out IC50, for O=C1C[C@@H](c2ccc(O)cc2)Oc2cc(O)ccc21 [LIQUIRTIGENIN] 22.5

What do you have for COc1ccc2c(c1)OC1c3cc(OC)c(OC)cc3OCC21 (centres undefined) ? 0.1

Next entry: COc1ccc2c(c1)OC1c3ccc(O)c(O)c3OCC21 (centres undefined) [VESTICARPAN] 6.9

Here is the next molecule: COc1ccc2c(c1)O[C@H]1c3ccc(OC)cc3OC[C@@H]21 [HOMOPTEROCARPIN] 3.9
